Source of measurements: patent US4738803A

Target: enkephalinase
Assay: Dosage of enkephalinasic (enkephalin dipeptidylcarboxypeptidasic) activity, effect of the inhibitors (striatal membrane fraction)
Conditions: 10 nM leucine-enkephalin ^3H, 0.1 mM puromycine, pH 7.4, 25° C, 15 min; read-out: 50% inhibitory concentration
METRIC_NAME: IC50 (µM)

| COMPOUND | TESTED_ON | ENDPOINT_RESULT |
| --- | --- | --- |
| O=CN(O)CC(Cc1ccccc1)NC(=O)CC(=O)O (stereo not shown) | enkephalinase | 0.007 |
| O=CN(O)CC(Cc1ccccc1)NC(=O)CC(=O)NCc1ccccc1 (stereo not shown) | enkephalinase | 0.2 |
| COC(=O)CC(=O)NC(Cc1ccccc1)NP(=O)(O)O (stereo not shown) | enkephalinase | 0.1 |
| COC(=O)CNC(=O)[C@H](Cc1ccccc1)NP(=O)(O)O | enkephalinase | 0.07 |
